Target: T1, full-length E. coli YbiB protein, N-terminally His6-tagged (E. coli, UniProt P30177 1-320)
T1 construct: homodimer; No cleavage of the His6-tag is told; the pull-down names the tag on the protein; also called YbiB WT; TrpD2 protein YbiB; source: E. coli BL21 (DE3) pLysS, purified (HisTrap, SEC); not shown: His6, N-terminal, kept
T1 sequence (looked up): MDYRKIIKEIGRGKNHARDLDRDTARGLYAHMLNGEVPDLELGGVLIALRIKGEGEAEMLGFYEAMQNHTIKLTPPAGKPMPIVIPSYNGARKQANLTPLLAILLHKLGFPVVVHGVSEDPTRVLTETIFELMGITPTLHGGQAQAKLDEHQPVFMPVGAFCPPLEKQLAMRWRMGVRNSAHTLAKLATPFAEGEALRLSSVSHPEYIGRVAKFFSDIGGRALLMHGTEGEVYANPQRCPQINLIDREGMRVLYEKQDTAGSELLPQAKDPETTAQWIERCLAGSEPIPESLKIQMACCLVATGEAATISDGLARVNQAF
Assay: ITC; YbiB in the syringe (500 μM to 1.4 mM) titrated into ObgE constructs or ObgE-derived peptides in the cell (50-75 μM); 25°C; 20 mM HEPES pH 7.5, 150 mM NaCl, 5 mM MgCl2, 1 mM β-mercaptoethanol; 'two sets of sites' model with 'ligand in cell' for biphasic isotherms; subunit concentrations
Settings: both partners purified
pKd: −log10 of the molar value.
observable: pKd

Using the record for LEEIAEEDDEDADDDADEDD (peptide, UniProt P42641 361-380, looked up, source: synthetic peptide (Fmoc SPPS, HPLC purified)) [peptide4-AA (variant of ObgE peptide4 with both Trp residues substituted by Ala)] , state its measured pKd. ~5.00
